Consider the following variants; for each one, report its protein stability index.
B1: OR10K2 (parent)
chain: SLARLQQLLFVIFLLLYLFTLGTN

variants of: B1; assay: protein stability index of a GFP-peptide fusion (GPS, HEK-293T) (PSI 1-6); higher = more stable; conditions: c terminus: a fixed tail appended;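 also: lentivirally expressed fusions sorted by FACS into six bins by GFP to DsRed ratio, PSI derived from sequencing read proportions per bin multiplied by bin number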

Sample "L16E" — what was its protein stability index?
3.61

Sample "T23D" — what was its protein stability index?
1.44

Sample "L2W" — what was its protein stability index?
1.88

Sample "R4S" — what was its protein stability index?
2.62

Sample "L5C" — what was its protein stability index?
3.1

Sample "V11M" — what was its protein stability index?
3.05

Sample "G22C" — what was its protein stability index?
2.65

Sample "L2S" — what was its protein stability index?
2.94

Sample "F19I" — what was its protein stability index?
1.51

Sample "L8R" — what was its protein stability index?
3.34

Sample "Q7E" — what was its protein stability index?
2.69

Sample "A3E" — what was its protein stability index?
1.91

Sample "A3G" — what was its protein stability index?
1.49

Sample "L18M" — what was its protein stability index?
2.1

Sample "S1W" — what was its protein stability index?
1.59

Sample "L2I" — what was its protein stability index?
3.49

Sample "F13W" — what was its protein stability index?
3.36

Sample "A3N" — what was its protein stability index?
3.31

Sample "L8N" — what was its protein stability index?
2.24

Sample "A3R" — what was its protein stability index?
1.76

Sample "Q6V" — what was its protein stability index?
2.45

Sample "T20F" — what was its protein stability index?
3.51
